Origin of measurements: patent US20250177359A1

Molecular target: UniProt:Q460N3
Sequence (Q460N3 whole entry): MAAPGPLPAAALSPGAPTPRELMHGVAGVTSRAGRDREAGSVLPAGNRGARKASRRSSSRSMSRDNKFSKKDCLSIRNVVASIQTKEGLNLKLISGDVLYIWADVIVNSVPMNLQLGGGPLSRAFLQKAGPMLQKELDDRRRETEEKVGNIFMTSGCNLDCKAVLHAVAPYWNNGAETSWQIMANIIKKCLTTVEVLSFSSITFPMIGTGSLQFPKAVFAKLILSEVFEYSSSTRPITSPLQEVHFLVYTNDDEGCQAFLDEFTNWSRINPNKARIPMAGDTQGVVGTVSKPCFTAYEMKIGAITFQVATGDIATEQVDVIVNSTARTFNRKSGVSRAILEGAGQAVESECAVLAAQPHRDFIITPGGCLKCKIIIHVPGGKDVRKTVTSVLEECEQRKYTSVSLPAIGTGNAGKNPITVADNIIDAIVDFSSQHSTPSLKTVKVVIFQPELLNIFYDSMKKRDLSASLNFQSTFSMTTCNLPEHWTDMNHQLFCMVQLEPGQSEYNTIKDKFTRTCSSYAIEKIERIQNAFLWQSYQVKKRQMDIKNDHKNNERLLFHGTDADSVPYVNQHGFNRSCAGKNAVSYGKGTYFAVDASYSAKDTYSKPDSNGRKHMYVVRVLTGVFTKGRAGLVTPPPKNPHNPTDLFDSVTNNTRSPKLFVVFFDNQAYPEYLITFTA
Experiment: biochemical
Conditions: PARP15 IC50, Tables 1-3 assay; > less than 50% inhibition, >> no inhibition at reported concentration; * value limited by protein concentration
Assay readout: IC50 (µM)
Numeric answer only, unit µM assumed.

Prompt line: Look up IC50 for this compound: "CC(=O)Nc1nnc2sc3cc(C)ccc3n12"
Response line: 5.2

====

Target: PARP2 (Homo sapiens, UniProt Q9UGN5)
Construct: made in house
Sequence (Q9UGN5 whole entry): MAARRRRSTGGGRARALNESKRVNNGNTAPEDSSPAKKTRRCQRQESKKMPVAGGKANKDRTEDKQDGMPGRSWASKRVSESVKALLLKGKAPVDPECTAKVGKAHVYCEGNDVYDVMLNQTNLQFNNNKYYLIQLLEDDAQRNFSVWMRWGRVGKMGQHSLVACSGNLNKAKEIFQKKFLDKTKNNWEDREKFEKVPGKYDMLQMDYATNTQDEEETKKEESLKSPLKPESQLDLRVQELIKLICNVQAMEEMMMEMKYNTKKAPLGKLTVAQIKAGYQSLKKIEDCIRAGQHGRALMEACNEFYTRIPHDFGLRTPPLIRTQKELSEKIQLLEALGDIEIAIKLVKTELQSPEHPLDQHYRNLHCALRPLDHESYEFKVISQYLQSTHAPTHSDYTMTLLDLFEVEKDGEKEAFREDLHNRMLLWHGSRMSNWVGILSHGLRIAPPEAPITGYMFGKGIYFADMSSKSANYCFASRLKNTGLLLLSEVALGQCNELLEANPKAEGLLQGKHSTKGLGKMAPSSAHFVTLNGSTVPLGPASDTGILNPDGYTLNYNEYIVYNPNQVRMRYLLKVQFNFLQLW
Assay: biochemical
Assay type: biochemical
Conditions: NAD+ consumption assay; > less than 50% inhibition at highest concentration, >> no inhibition
pIC50: −log10 of the molar value.
Tick 1 if pIC50 is 5 or greater. Tick 0 if pIC50 is less than 5.

The following compounds have reported results that may help.
>  <Smiles input>
Oc1ccc(O)c2c1sc1nncn12

>  <Qualitative label>
1

$$$$
>  <Smiles input>
Cc1cc(C)c2c(c1)sc1nncn12

>  <Qualitative label>
1

$$$$
>  <Smiles input>
COc1ccc2sc3nncn3c2c1

>  <Qualitative label>
1

$$$$

Prompt line: Is the recorded value of pIC50 equal to or greater than 5 for this compound? "COc1cc(OC)c2sc3nncn3c2c1"
Response line: 0

====

Collected pIC50 values appear next to each entry.
Molecular target: PARP10 (Homo sapiens, UniProt Q53GL7)
Construct: made in house
Sequence (Q53GL7 whole entry): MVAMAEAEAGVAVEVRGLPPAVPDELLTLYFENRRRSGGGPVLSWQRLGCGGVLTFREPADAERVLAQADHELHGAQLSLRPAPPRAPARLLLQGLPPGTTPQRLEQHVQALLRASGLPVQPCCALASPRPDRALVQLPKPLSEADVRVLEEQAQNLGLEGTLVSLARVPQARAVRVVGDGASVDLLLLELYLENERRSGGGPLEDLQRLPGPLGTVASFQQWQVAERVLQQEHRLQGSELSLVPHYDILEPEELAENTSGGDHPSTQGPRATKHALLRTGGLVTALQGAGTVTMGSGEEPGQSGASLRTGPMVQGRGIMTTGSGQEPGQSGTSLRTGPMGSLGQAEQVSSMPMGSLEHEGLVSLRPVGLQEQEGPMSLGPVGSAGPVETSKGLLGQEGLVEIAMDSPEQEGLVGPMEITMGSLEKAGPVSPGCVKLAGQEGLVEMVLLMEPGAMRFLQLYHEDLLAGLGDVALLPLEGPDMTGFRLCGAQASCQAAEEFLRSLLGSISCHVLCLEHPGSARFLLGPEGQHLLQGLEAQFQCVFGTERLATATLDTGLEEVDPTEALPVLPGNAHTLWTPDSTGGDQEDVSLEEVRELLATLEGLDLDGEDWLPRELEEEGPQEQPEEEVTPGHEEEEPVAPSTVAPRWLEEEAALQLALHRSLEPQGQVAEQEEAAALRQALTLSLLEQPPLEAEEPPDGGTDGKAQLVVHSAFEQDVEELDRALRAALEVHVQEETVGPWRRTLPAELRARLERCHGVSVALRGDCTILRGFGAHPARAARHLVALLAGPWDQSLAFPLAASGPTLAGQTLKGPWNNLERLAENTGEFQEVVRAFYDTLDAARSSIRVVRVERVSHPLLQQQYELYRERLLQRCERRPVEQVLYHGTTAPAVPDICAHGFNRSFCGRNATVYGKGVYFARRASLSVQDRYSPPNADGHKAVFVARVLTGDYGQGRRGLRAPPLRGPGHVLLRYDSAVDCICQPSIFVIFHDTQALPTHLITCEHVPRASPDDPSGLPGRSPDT
Test: Activity assay measuring NAD+ consumption, PARP10 (Tables 1-3)
Type: biochemical
Conditions: PARP10 pIC50 ± SEM, Tables 1-3 assay
API: returns pIC50 as number; meaning -log10 of concentration in mol/L.

>  <Smiles input>
COc1cc2sc3nnc(N)n3c2cc1OC

>  <Tgt>
PARP10 (Homo sapiens, UniProt Q53GL7)

>  <pIC50>
6.97

$$$$

Prompt line: Reported pIC50 for PARP10 (Homo sapiens, UniProt Q53GL7), given "COc1ccc(OCC(C)C)c2c1sc1nnc(N)n12" ?
Response line: 7.09

====

Target: PARP2 (Homo sapiens)
Construct: made in house
Test: biochemical
Format: biochemical
Assay readout: pIC50
Please keep in mind that pIC50 is minus log10 of the molar concentration; only the number is needed.

>  <Smiles input>
Oc1ccc2c(c1)sc1nncn12

>  <pIC50>
7.36

$$$$

--- query ---
Prompt line: Given the entry "c1ccc2c(c1)sc1nncn12" , what pIC50 was observed with PARP2 (Homo sapiens)?
Response line: 5.28

====

Below: a set of entries, each annotated with reported pIC50.
Molecular target: PARP2 (Homo sapiens, UniProt Q9UGN5)
Construct: made in house
Assay: biochemical
Format: biochemical
Conditions: NAD+ consumption assay; > less than 50% inhibition at highest concentration, >> no inhibition
# log scale: pIC50 equals minus log10 of the concentration in mol/L

See these solved cases before continuing.
>  <Molecule>
COc1ccc(OC)c2c1sc1n[nH]c(=S)n12 [Compound 26]

>  <Tgt>
PARP2 (Homo sapiens, UniProt Q9UGN5)

>  <pIC50>
4.72

$$$$
>  <Molecule>
COc1ccc(OC)c2c1sc1nnc(N)n12 [Compound 28]

>  <Tgt>
PARP2 (Homo sapiens, UniProt Q9UGN5)

>  <pIC50>
5.00

$$$$
>  <Molecule>
Cc1ccc2c(c1)sc1nnc(/N=C\c3ccc(Cl)cc3)n12 [Compound 25]

>  <Tgt>
PARP2 (Homo sapiens, UniProt Q9UGN5)

>  <pIC50>
5.54

$$$$
>  <Molecule>
CSc1nnc2sc3cc(C)ccc3n12 [Compound 21]

>  <Tgt>
PARP2 (Homo sapiens, UniProt Q9UGN5)

>  <pIC50>
4.92

$$$$
>  <Molecule>
COc1ccc(OC)c2c1sc1nnc(NC(=O)C(C)(C)C)n12 [Compound 30]

>  <Tgt>
PARP2 (Homo sapiens, UniProt Q9UGN5)

>  <pIC50>
4.28

$$$$

Prompt line: # query: pIC50 of entry Clc1ccc2c(c1)sc1nncn12 [Compound 9]
Response line: 5.62

Prompt line: Report pIC50 for CC(C)c1ccc2c(c1)sc1nncn12 [Compound 8] please.
Response line: 5.35

Prompt line: Could you tell me which pIC50 is on file for COc1ccc(OC)c2c1sc1nnc(NC(C)=O)n12 [Compound 31] ?
Response line: 4.01

Prompt line: Any idea what pIC50 was measured for COc1ccc(OC)c2c1sc1nncn12 [Compound 13] ?
Response line: 5.04

Prompt line: Need pIC50 of Cc1ccc2sc3nncn3c2c1 [Compound 5] , thanks.
Response line: 5.82

Prompt line: Field request: pIC50 | item: CCc1ccc2c(c1)sc1nncn12 [Compound 7]
Response line: 5.41
